Entries annotated with measured gMFIr Human CD8+ T cells
# testedOn: T1, human PVRIG on cells (human, UniProt Q6DKI7 1-326)
# T1 construct: whole, on cells; over-expressed on HEK cells or endogenous on Jurkat and CD8 T cells; also called hPVRIG; HEK hPVRIG cells
# T1 sequence (looked up): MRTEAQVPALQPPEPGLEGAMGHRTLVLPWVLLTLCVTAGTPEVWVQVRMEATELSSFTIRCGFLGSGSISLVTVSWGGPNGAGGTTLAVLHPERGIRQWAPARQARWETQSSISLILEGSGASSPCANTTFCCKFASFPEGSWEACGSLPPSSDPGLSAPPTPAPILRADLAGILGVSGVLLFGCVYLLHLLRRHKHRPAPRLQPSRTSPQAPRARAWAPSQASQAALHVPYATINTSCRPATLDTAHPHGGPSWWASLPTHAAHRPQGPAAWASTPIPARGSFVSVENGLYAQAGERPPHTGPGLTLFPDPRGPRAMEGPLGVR
# experiment: FACS, human PBMC, CD8+ T cells, 10ug/ml
assayReadout: gMFIr Human CD8+ T cells

{"binder": "CHA.7.550 (antibody, V domains shown) VH: QVQLQESGTELVKPGASVKLSCKASGYTFTSYWIHWVKQRPGQGLEWIGNINPSNGGTNYNEKFKSKAALTVDKSSSTAYMQLSSLTSEDSAVYYCARRGLPYFFDYWGQGTTLTVSS VL: DIVMTQSQKFMSTSVGDRVSVTCKGSQNVGYNVAWYQQKPGQSPKALVYSASDRHSGVPDRFAGSGSGTDFTLTISNVQSEDLAEYFCQQYNSYPLTFGAGTKLELK", "observedResult": 1.29}
{"binder": "CHA.7.514 (antibody, V domains shown) VH: EVQLRQSGADLVKPGASVKLSCTASGFNIKDTYIDWVKQRPEQGLDWIGRIDPANGNTKYDPKFQGKATIITDTSSNTAYLQLSNLTSEDTAVYYCARYGSYPYFDYWGRGTTLAVSS VL: SIVMTQTPKFLLISAGDRVTITCKASQSVRNDVAWYQQKPGQSPKLLMYYASNRYTGVPDRFTGSGYGTDFTFTISTVQAEDLAVYFCQQDYSSPPTFGGGTKLEIK", "observedResult": 5.15}
{"binder": "CHA.7.545 (antibody, V domains shown) VH: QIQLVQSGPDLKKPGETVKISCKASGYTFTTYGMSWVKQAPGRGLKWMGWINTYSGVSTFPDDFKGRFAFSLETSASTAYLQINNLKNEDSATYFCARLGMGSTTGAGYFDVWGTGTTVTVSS VL: DIVLTQSPAIMSASPGEKVTMTCSASSSVSSWYLHWYQQKSGASPKLWIYGTSNLASGVPARFSGSGSGTSYSLTISSVEAEDAATYYCQQYRSDPYTFGSGTKLEIK", "observedResult": 2.82}

// provenance: patent US20240075137A1
